- assayMethodText: Drug uptake in Wistar rat CSF at 10 mg/kg, po measured after 3 hrs
- Assay type: ADME, organism-based, Cerebrospinal fluid
- measurementSetup: read-out: Drug uptake
experimentalReadout: concentration at 3 h (µM)
Report the figure in µM without appending any unit label.

query: Item O=C(Nc1ccc(F)cc1)N1N=C(c2ccncc2)CC1c1ccc(F)cc1 (stereo unspecified) has what recorded concentration at 3 h?
result: 0.029

----------
- testedOn: UniProt P08684
- Sequence (P08684 whole entry): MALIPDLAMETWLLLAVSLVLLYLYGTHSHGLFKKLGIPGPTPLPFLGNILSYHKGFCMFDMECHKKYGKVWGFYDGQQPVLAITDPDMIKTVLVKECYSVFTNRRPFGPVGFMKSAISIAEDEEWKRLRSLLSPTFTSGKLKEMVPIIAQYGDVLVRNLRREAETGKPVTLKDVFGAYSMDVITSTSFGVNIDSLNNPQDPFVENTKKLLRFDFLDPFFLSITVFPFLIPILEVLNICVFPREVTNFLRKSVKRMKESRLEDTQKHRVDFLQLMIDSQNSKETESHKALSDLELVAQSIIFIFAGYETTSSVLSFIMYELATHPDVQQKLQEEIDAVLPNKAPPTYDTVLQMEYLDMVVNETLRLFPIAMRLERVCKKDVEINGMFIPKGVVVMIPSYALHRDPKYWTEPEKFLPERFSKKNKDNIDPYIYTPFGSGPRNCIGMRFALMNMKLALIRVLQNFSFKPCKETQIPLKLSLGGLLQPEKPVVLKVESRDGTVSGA
- assayMethodText: Inhibition of CYP3A4 (unknown origin) using testosterone as substrate
- Type: ADME
experimentalReadout: IC50 (nM)
Report the figure in nM without appending any unit label.

query: Item O=C(Nc1ccc(F)cc1)N1N=C(c2ccncc2)CC1c1ccc(F)cc1 (stereo unspecified) has what recorded IC50?
result: 1800

----------
- assayMethodText: Tmax in Wistar rat plasma at 2 mg/kg, po administered 2 hrs after aminobenzotriazol-treatment
- Type: ADME, organism-based
experimentalReadout: Tmax
Reply with the number and its unit after it.

query: Item O=C(Nc1ccc(F)cc1)N1N=C(c2ccncc2)CC1c1ccc(F)cc1 (stereo unspecified) has what recorded Tmax?
result: 6.6 h

----------
- testedOn: Voltage-dependent T-type calcium channel subunit alpha-1I (Homo sapiens)
- Sequence (Q9P0X4 whole entry): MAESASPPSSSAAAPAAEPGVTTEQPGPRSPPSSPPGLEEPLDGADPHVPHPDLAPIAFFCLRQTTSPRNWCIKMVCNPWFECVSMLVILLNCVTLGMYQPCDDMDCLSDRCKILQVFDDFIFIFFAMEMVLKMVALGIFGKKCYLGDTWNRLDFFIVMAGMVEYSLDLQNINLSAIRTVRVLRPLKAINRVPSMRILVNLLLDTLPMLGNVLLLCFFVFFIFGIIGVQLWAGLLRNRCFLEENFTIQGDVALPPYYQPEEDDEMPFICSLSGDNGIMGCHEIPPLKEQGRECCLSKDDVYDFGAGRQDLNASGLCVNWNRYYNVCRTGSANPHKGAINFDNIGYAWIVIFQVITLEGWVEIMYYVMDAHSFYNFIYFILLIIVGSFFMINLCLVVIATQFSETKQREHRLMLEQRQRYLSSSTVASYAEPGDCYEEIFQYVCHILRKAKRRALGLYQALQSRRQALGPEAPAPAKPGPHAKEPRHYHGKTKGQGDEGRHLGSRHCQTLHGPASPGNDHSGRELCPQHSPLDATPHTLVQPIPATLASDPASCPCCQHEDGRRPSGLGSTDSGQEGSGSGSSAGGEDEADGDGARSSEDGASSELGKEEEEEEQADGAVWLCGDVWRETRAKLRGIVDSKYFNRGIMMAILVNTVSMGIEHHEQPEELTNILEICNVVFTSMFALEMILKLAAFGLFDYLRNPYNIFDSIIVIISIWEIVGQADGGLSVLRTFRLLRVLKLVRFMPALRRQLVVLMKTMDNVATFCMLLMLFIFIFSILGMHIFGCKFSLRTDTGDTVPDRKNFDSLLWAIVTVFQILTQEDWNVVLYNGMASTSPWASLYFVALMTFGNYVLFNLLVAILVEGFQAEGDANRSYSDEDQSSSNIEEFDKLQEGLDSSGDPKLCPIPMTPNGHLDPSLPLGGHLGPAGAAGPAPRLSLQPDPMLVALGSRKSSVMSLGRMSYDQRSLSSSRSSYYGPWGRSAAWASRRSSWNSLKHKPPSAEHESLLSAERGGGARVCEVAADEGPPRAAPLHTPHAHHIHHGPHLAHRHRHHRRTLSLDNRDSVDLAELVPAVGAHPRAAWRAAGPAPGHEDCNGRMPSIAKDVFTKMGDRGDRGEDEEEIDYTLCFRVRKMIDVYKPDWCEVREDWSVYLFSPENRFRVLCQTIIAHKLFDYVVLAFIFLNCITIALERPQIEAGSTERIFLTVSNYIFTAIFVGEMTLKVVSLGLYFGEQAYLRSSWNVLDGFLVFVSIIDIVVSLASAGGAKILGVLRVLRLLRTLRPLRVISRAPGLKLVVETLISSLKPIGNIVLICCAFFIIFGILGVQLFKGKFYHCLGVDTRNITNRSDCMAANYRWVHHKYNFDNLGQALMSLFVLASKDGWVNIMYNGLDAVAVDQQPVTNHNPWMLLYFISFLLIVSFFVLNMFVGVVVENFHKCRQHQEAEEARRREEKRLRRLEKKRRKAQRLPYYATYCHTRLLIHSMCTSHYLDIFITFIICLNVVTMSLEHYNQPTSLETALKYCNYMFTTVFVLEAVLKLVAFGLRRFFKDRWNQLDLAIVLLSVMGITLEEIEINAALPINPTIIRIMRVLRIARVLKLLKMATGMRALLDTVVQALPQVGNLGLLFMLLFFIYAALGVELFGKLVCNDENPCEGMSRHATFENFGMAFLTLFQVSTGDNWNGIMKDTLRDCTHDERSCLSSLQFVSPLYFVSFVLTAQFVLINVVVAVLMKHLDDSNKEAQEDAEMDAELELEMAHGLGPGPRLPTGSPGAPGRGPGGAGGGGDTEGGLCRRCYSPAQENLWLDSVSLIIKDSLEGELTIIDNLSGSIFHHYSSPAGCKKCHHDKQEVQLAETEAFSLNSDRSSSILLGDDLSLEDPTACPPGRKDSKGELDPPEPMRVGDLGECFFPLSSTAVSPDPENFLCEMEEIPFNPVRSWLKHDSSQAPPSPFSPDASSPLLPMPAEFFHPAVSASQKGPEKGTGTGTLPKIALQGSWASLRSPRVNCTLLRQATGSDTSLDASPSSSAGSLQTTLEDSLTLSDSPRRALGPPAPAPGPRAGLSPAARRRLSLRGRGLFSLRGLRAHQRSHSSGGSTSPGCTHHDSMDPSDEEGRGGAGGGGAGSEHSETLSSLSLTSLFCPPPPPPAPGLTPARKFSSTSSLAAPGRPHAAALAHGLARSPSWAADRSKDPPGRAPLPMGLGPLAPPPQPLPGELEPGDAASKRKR
- assayMethodText: Inhibition of T-type calcium channel Cav3.3 (unknown origin) expressed in HEK293 cells assessed as calcium influx by Fluo-4-AM dye-based FLIPR assay
- Format: cell-based
Listed here: items and their measured pIC50.
Value format note: pIC50 is -log10 of concentration (mol/L); just state the number.

>>> reading("CC(C)(C)NC(=O)CN1CCC(CNC(=O)c2cc(F)cc(Cl)c2)CC1 [ULIXACALTAMIDE]")
7.07
>>> reading("O=C(Nc1ccc(F)cc1)N1N=C(c2ccncc2)CC1c1ccc(F)cc1 (stereo not drawn)")
6.47

The record that follows has no pIC50 shown yet.
query: Item CC(C)c1ccc(CC(=O)N[C@H](C)c2ccc(OCC(F)(F)F)cn2)cc1 [SUVECALTAMIDE] has what recorded pIC50?
result: 8.82

----------
- testedOn: Voltage-dependent T-type calcium channel subunit alpha-1G (Homo sapiens)
- assayMethodText: Inhibition of T-type calcium channel Cav3.1 (unknown origin) expressed in HEK293 cells assessed as calcium influx by Fluo-4-AM dye-based FLIPR assay
- Format: cell-based
experimentalReadout: IC50 (nM)
Report the figure in nM without appending any unit label.

Below are worked cases with known answers.
>>> reading("CC(C)c1ccc(CC(=O)N[C@H](C)c2ccc(OCC(F)(F)F)cn2)cc1 [SUVECALTAMIDE]")
1.2
>>> reading("O=C(Nc1ccc(F)cc1)N1N=C(c2ccncc2)CC1c1ccc(F)cc1 (stereo not drawn)")
29

query: Notebook entry, Voltage-dependent T-type calcium channel subunit alpha-1G (Homo sapiens) assay: IC50 of CC(C)(C)NC(=O)CN1CCC(CNC(=O)c2cc(F)cc(Cl)c2)CC1 [ULIXACALTAMIDE] = ?
result: 37

----------
- testedOn: Voltage-dependent T-type calcium channel subunit alpha-1H (Homo sapiens, UniProt O95180)
- Sequence (O95180 whole entry): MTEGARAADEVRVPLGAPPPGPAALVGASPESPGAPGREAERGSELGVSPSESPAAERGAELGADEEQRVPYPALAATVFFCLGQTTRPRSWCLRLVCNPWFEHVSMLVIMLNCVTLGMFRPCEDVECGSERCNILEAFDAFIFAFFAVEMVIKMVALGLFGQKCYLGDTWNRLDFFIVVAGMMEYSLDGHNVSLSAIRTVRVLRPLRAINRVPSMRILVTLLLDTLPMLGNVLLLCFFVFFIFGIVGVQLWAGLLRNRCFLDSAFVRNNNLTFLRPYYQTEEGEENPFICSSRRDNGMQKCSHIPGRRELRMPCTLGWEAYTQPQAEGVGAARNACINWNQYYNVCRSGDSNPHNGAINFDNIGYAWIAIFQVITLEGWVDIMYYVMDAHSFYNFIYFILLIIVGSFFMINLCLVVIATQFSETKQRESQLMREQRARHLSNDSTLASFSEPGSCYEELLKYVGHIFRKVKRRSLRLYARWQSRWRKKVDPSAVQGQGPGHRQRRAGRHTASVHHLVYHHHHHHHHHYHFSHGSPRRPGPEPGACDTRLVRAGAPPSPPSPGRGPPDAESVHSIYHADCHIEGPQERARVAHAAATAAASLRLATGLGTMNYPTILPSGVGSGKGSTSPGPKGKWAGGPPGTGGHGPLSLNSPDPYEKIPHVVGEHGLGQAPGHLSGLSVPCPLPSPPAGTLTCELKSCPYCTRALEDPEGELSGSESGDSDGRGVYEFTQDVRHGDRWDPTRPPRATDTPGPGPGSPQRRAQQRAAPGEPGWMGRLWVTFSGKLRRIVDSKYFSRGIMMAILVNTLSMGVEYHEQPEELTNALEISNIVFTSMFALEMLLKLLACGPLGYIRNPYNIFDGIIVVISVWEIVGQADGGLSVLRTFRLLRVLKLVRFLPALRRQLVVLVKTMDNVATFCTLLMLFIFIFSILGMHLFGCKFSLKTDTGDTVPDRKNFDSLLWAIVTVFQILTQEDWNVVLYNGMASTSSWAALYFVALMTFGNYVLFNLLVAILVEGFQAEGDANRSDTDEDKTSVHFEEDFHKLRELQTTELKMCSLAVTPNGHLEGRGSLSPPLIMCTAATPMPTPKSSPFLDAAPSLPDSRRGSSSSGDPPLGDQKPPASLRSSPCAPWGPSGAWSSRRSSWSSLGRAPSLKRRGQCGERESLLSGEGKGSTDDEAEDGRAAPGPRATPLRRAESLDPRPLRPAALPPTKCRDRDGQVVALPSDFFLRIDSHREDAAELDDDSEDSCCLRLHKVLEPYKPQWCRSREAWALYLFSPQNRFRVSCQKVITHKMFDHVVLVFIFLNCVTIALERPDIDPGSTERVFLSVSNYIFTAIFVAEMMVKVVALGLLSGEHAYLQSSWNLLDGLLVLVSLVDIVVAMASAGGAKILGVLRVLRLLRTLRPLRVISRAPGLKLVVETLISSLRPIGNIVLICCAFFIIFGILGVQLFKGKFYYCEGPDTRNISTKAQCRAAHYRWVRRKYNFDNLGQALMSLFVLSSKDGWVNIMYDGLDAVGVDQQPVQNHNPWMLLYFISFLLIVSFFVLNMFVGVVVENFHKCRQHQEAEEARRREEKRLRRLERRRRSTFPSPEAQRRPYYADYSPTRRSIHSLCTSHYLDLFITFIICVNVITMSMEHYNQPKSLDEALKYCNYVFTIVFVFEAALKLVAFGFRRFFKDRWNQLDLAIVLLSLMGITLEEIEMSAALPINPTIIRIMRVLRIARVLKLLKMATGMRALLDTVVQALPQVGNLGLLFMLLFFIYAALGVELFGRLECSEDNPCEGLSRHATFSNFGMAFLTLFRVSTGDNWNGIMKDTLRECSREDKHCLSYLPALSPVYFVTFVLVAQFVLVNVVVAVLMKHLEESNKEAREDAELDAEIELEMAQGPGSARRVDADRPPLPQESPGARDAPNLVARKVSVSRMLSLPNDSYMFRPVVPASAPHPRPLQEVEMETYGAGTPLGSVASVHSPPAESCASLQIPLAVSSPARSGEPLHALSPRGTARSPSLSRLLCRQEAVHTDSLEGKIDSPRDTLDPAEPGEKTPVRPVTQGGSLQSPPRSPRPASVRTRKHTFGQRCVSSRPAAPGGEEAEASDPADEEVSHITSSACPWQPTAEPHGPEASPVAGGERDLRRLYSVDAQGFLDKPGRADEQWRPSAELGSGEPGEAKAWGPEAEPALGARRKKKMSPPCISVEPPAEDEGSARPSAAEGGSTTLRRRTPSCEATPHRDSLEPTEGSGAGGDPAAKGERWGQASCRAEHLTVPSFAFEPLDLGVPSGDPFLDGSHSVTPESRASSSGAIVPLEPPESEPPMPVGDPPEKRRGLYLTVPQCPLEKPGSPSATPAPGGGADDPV
- assayMethodText: Inhibition of recombinant T-type calcium channel Cav3.2 (unknown origin) expressed in HEK293 cells assessed as inhibition of CaCl2-induced calcium influx preincubated for 3 mins prior CaCl2 addition by Fluo-4-AM dye-based FLIPR assay
- Type: cell-based
Note to self: IC50 under 400 nM means True, ties and anything higher get False.

>>> grouplabel("CCc1ccc(NC(=O)N2N=C(c3ccc(Br)cc3)CC2c2ccc(F)cc2)cc1 (stereo not given)")
"False"
>>> grouplabel("O=C(Nc1ccc(F)cc1)N1N=C(c2cc[n+]([O-])cc2)CC1c1ccc(F)cc1 (stereo not given)")
"True"
>>> grouplabel("O=C(Nc1cccc(F)c1)N1N=C(c2ccc(Br)cc2)CC1c1ccc(F)cc1 (stereo not given)")
"True"
>>> grouplabel("CS(=O)(=O)c1ccc(C2(CCO)CC(c3ccccc3)=NN2C(=O)Nc2ccc(F)cc2)cc1 (stereo not given)")
"False"
>>> grouplabel("O=C(Nc1ccccc1F)N1N=C(c2ccc(Br)cc2)CC1c1ccc(F)cc1 (stereo not given)")
"False"
>>> grouplabel("Cc1ccc(C2(CCN3CCN(C)CC3)CC(c3ccccc3)=NN2C(=O)Nc2ccc(F)cc2)cc1 (stereo not given)")
"False"
>>> grouplabel("O=C(Nc1ccc(F)cc1)N1N=C(c2ccncc2)CC1c1ccc(F)cc1 (stereo not given)")
"True"

query: Regarding O=C(c1ccccc1)N1N=C(c2ccc(Br)cc2)CC1c1ccc(F)cc1 (stereo not given) , kindly confirm whether its IC50 is beneath 400 nM.
result: False

Origin of the recorded values: ChEMBL document CHEMBL3853331
